Can you tell me viability for the items I'm about to list?
Assay: in vitro
Conditions: human, % Viability of SARS-2-Spike pv
Counter-ions that a name gives are not always drawn.
Provide the reading as a plain figure in %.

Enquiry: Would you kindly share the measured viability for CN(C)CCC=C1c2ccccc2C=Cc2ccccc21 [cyclobenzaprine HCl] ?
Return: 101

Enquiry: Would you kindly share the measured viability for CN1CCC(=C2c3ccccc3CCc3sccc32)CC1 [pizotifen malate] ?
Return: 106

Enquiry: Would you kindly share the measured viability for CC1CCC2(OC1)OC1CC3C4CCC5CC(OC6OC(CO)C(O)C(O)C6OC6OC(CO)C(O)C(O)C6O)CCC5(C)C4CCC3(C)C1C2C (stereo not drawn) ?
Return: 55

Enquiry: Would you kindly share the measured viability for `Cc1cc(Nc2cc(CN3CCOCC3)c3nc(C)c(Cc4ccc(Cl)cc4F)n3n2)n[nH]1` ?
Return: 76

Enquiry: Would you kindly share the measured viability for CN[C@H]1CC[C@@H](c2ccc(Cl)c(Cl)c2)c2ccccc21 [sertraline HCl] ?
Return: 95

Enquiry: Would you kindly share the measured viability for CN(C)CCCN1c2ccccc2Sc2ccc(Cl)cc21 [chlorpromazine HCl] ?
Return: 65

Enquiry: Would you kindly share the measured viability for CCOC(=O)C1=C(COCCN)NC(C)=C(C(=O)OC)C1c1ccccc1Cl (stereo not drawn) ?
Return: 115

Enquiry: Would you kindly share the measured viability for CN1CCN(CCCN2c3ccccc3Sc3ccc(C(F)(F)F)cc32)CC1 [trifluoperazine 2HCl] ?
Return: 83

Enquiry: Would you kindly share the measured viability for `CN(C)CC/C=C1/c2ccccc2Sc2ccc(Cl)cc21` ?
Return: 97

====

System: VSV-G pseudovirus
Assay: microbe, parasite or virus in culture
Assay type: cell-based, vesicular stomatitis virus
Settings: Pseudovirus, 293T/ACE2, read-out: % Infectivity of VSV-G pv
Counter-ions that a name gives are not always drawn. *1 amine or outer side, *2 acyl side, *3 side chain or, on linkers, in order; H or OH if unused. Where a SMILES comes first, the peptide text is derived from it. Bridges are numbered along the chain shown (N, C = ends). [ ]: non-standard residue; d: D form. The star is where a group is joined. pTerphenylCO(4''-OnC5H11) = CCCCCOc1ccc(-c2ccc(-c3ccc(C(=O)*)cc3)cc2)cc1; Orn(4R-OH,5R-OH) = O=C([C@H](C[C@@H](O)[C@@H](O)N[*:3])N[*:1])[*:2]; hTyr(3S-OH,4S-OH) = N[C@H](C(=O)O)[C@H](O)[C@@H](O)c1ccc(O)cc1; Pro(3S-OH,4S-Me) = C[C@H]1CN[C@H](C(=O)O)[C@H]1O; Hyp = O=C(O)[C@@H]1C[C@@H](O)CN1
Experimental endpoint: activity at 10 µM (%)
Provide the reading as a plain figure in %.

Enquiry: Would you kindly share the measured activity at 10 µM for CCCCCOc1ccc(-c2ccc(-c3ccc(C(=O)N[C@H]4C[C@@H](O)[C@@H](O)NC(=O)[C@@H]5[C@@H](O)[C@@H](C)CN5C(=O)[C@H]([C@@H](C)O)NC(=O)[C@H]([C@H](O)[C@@H](O)c5ccc(O)cc5)NC(=O)[C@@H]5C[C@@H](O)CN5C(=O)[C@H]([C@@H](C)O)NC4=O)cc3)cc2)cc1 [anidulafungin] ({pTerphenylCO(4''-OnC5H11)}-[Orn(4R-OH,5R-OH)]T[Hyp][hTyr(3S-OH,4S-OH)]T[Pro(3S-OH,4S-Me)]; lactam 1-C) ?
Return: 125

Enquiry: Would you kindly share the measured activity at 10 µM for CN1CCC(=C2c3ccccc3C=Cc3ccccc32)CC1 [cyproheptadine HCl] ?
Return: 92

Enquiry: Would you kindly share the measured activity at 10 µM for `COc1cc2c(Oc3ccc4[nH]c(C)cc4c3F)ncnc2cc1OCCCN1CCCC1` ?
Return: 42

Enquiry: Would you kindly share the measured activity at 10 µM for `COc1cc2c(Nc3ccc(Br)cc3F)ncnc2cc1OCC1CCN(C)CC1` ?
Return: 125

Enquiry: Would you kindly share the measured activity at 10 µM for O=C(c1ccc(OCCN2CCCCC2)cc1)c1c(-c2ccc(O)cc2)sc2cc(O)ccc12 [raloxifene HCl] ?
Return: 65
